test: protein stability index of a GFP-peptide fusion (GPS, HEK-293T) (PSI 1-6); higher = more stable; settings: treatment: MLN4924 1 uM, 8 h; c terminus: a fixed tail appended;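 note: 24-mer peptide tiles fused after GFP, lentivirally expressed, FACS-sorted into six equal bins by GFP/DsRed ratio, decoded by Illumina sequencing, PSI is the read-weighted mean bin number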

>  <ITEM_SEQUENCE>
IQQALTMFPGVLLPLLESCSVRPD [TCF25]

>  <protein stability index>
3.18

$$$$
>  <ITEM_SEQUENCE>
VKGLFKSENCPKVISCEFAHNSNW [LARP4]

>  <protein stability index>
2.4

$$$$
>  <ITEM_SEQUENCE>
DDHSVRVAREDVRESCPPLGLETL [CPXM2]

>  <protein stability index>
4.92

$$$$
>  <ITEM_SEQUENCE>
ELDNPMQQKWTKPARAGSEVEWTE [C2CD2L]

>  <protein stability index>
4.25

$$$$
>  <ITEM_SEQUENCE>
AESLKGKLEEERAKLHDVELHQVA [GNB5]

>  <protein stability index>
5.23

$$$$
>  <ITEM_SEQUENCE>
EVGKSFERHKLKRQDADAWTLYKI [SMG5]

>  <protein stability index>
2.9

$$$$
>  <ITEM_SEQUENCE>
APGIGPPEPWPGGCTGDEAESRGH [MYCL]

>  <protein stability index>
5.51

$$$$
>  <ITEM_SEQUENCE>
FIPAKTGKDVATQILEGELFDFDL [RSPH3]

>  <protein stability index>
2.89

$$$$
>  <ITEM_SEQUENCE>
EWDAMGGKVQDIKAREKDGKGRTA [FSD1]

>  <protein stability index>
5.35

$$$$
>  <ITEM_SEQUENCE>
CTQLGSLSALKHAVLGLYLLVFLI [SCARA5]

>  <protein stability index>
2.05

$$$$
>  <ITEM_SEQUENCE>
FLSDVTAAVKENQMTPTNLAVCLA [DLC1]

>  <protein stability index>
2.92

$$$$
>  <ITEM_SEQUENCE>
KRLSRFDIEMSMRGDIFERIVHLQ [NLN]

>  <protein stability index>
2

$$$$
>  <ITEM_SEQUENCE>
AGSSTWERYFIPVSCFLTFNIFDW [SLC29A1]

>  <protein stability index>
3.05

$$$$
>  <ITEM_SEQUENCE>
TEFTRFLCSSPLEAETPPNGPDCG [ATE1]

>  <protein stability index>
4.52

$$$$
>  <ITEM_SEQUENCE>
AASPQDLAGGYTSSLACHRALQDA [MNAT1]

>  <protein stability index>
4.24

$$$$
>  <ITEM_SEQUENCE>
AALCALGKDCFLELAPDFVGDILW [ETS1]

>  <protein stability index>
2.95

$$$$
>  <ITEM_SEQUENCE>
FSVVRRCMKIPTGQEYAAKIINTK [CAMK2D]

>  <protein stability index>
2.31

$$$$
>  <ITEM_SEQUENCE>
QLCGKTFLTLEKFTIHNYSHSRER [PLAGL1]

>  <protein stability index>
2.27

$$$$
>  <ITEM_SEQUENCE>
EPAARISPLGALQHGFFRRTADEA [DYRK1B]

>  <protein stability index>
3.89

$$$$
>  <ITEM_SEQUENCE>
PKKDLEDGEVPQHAGKKGKLSEHL [BRD3]

>  <protein stability index>
5.3

$$$$
>  <ITEM_SEQUENCE>
FFVANKYWRYDEYKRSMDPGYPKM [MMP1]

>  <protein stability index>
2.16

$$$$
>  <ITEM_SEQUENCE>
LYPEGIGARQQQVTTYLHKDYNNL [POMT2]

>  <protein stability index>
3.35

$$$$
>  <ITEM_SEQUENCE>
APAPAPASSGQHHDFLSDLFSDDY [CEBPB]

>  <protein stability index>
5.14

$$$$
>  <ITEM_SEQUENCE>
PKLFCPKNRSFDIDAIYSVIDDAK [PLD5]

>  <protein stability index>
2.89

$$$$
>  <ITEM_SEQUENCE>
KEDALLYQSKGYNDDYYEESYFTT [EMD]

>  <protein stability index>
4.21

$$$$
>  <ITEM_SEQUENCE>
FGPGQTLLSSVHVLDLEARGYIKP [ALKBH7]

>  <protein stability index>
2.67

$$$$
>  <ITEM_SEQUENCE>
RGGMGSGGLATGIAGGLAGMGGIQ [KRT18]

>  <protein stability index>
3.38

$$$$
